Let's go through some pIC50 measurements on Cytochrome P450 2C19 (Homo sapiens, UniProt P33261) together.
Sequence (P33261 whole entry): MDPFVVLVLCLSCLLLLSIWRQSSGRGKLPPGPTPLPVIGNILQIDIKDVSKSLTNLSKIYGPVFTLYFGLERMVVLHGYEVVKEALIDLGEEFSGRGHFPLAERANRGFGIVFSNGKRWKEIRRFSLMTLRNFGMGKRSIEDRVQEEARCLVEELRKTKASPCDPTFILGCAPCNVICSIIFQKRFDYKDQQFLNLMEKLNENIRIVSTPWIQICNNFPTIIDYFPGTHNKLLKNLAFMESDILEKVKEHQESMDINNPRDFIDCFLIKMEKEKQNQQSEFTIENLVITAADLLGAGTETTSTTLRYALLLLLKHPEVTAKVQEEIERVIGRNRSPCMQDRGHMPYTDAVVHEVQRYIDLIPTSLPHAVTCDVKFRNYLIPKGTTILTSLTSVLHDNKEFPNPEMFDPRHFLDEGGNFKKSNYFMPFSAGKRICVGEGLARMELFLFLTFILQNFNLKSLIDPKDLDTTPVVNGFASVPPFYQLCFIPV
pIC50: −log10 of the molar value.

[
  {
    "query smiles": "CCCc1nc2c(C)cc(-c3nc4ccccc4n3C)cc2n1Cc1ccc(-c2ccccc2C(=O)O)cc1",
    "pIC50": "< 4.30"
  },
  {
    "query smiles": "Fc1ccc(C(c2ccc(F)cc2)N2CCN(C/C=C/c3ccccc3)CC2)cc1",
    "pIC50": "< 4.30"
  }
]

Now take the following compound into account.
Fill in: pIC50 of CN[C@H]1CC[C@@H](c2ccc(Cl)c(Cl)c2)c2ccccc21 is ___ 4.65

All values here come from ChEMBL document CHEMBL3526101.
